Test system: stress ulcer
method: Stress Ulcer Inhibition Test
Type: in vivo, Male Wistar rats
condition-details: Rattus norvegicus, 7 h; 100 mg/kg, oral, Wistar rats; read-out: Inhibition ratio (stress ulcer)
Form field: inhibition in vivo at 100 mg/kg (one value per entry).
The reply should be a number in %, with the unit left off.

# return recorded inhibition in vivo at 100 mg/kg for input `CC(C)=CCOc1ccc(C(=O)/C=C/c2ccc(C(C)(C)C)cc2)c(OCC(=O)O)c1` 84.2

# return recorded inhibition in vivo at 100 mg/kg for input `CC(C)=CCOc1ccc(C(=O)/C=C/c2ccc(C(C)(C)C)cc2)c(OCCCC(=O)O)c1` 72

# return recorded inhibition in vivo at 100 mg/kg for input CCCc1ccc(/C=C/C(=O)c2ccc(OCC=C(C)C)cc2OCC(=O)O)cc1 [E, reference compound] 57.1

# return recorded inhibition in vivo at 100 mg/kg for input CC(C)=CCOc1ccc(C(=O)/C=C/c2ccc(C)cc2)c(OCC(=O)O)c1 [D, reference compound] 26.2

# return recorded inhibition in vivo at 100 mg/kg for input `CCCCc1ccc(/C=C/C(=O)c2ccc(OCC=C(C)C)cc2OCC(=O)O)cc1` 63
